Tested on: UACC-62
assay explanation: NCI tumour cell line growth inhibition, 48 h
Activity calls are given as the source filed them. No stated cut-off is given here; in the data, active = GI50 up to about 1.1 µM and inactive = higher.
For each of the molecules below, state its GI50.

// returns reported GI50 for input `O[C@@]1(C#Cc2ccc3c(c2)OCO3)CCC[C@H]1NCc1ccccc1`
16.9 µM (inactive)

Hey, quick one: what's GI50 for each of these?
1. CCOC(=O)C1=CNC(C(=O)OCC)C1c1cccn1-c1ccc(Cl)cc1[N+](=O)[O-] (stereo unspecified)
2. N/N=C1/C(=N/O)CCc2nonc21
3. O/N=C\c1c2c(cc3c1CCC3)CCC2
4. COc1cc(O)c2c(c1)C(=O)c1cc3c(c(O)c1C2=O)C(OC1OC(C)C(O)C(O)C1OC)C(OC)C(C)(O)C3=O (stereo unspecified)
5. CCOc1ccc2c(c1)c(CC(=O)O)cn2C
6. C=CC1OC(CCCOC(=O)C(C)(C)C)O[C@@H]1CC (stereo partly specified)
7. CCOC(=O)c1nnsc1NC(=O)NN
8. Cc1cc(O)cc2oc(=O)c3c(O)cc(O)cc3c12 [ALTERNARIOL]

["15.7 µM (inactive)", "> 100 µM (inactive)", "> 100 µM (inactive)", "1.38 µM (inactive)", "> 100 µM (inactive)", "> 100 µM (inactive)", "> 100 µM (inactive)", "24 µM (inactive)"]

I would be grateful if you could provide GI50 for each of the following entries.
1. CC(C)(N)C(=O)N[C@@H]1C(=O)N2[C@@H]1SC(C)(C)[C@@H]2C(=O)O
2. CN(C)/C=N/c1c2ccccc2nc2ccccc12

1. > 100 µM (inactive)
2. 2.45 µM (inactive)
